Experiment: kinetic aqueous solubility, laser nephelometry
Type: physicochemical
Settings: MilliQ water with 1.0% DMSO, kinetic from dmso stock
ASSAY METRIC: solubility kinetic

Record Cn1nc(C(F)(F)F)c(-c2ccc(F)cc2)c1NC(=O)Nc1ccc(F)cc1 . Reported solubility kinetic: > 250 µM

----------
Biological target: PfProRS (Plasmodium falciparum, UniProt Q8I5R7)
Construct: B2, AA7–746 (minus 6 amino acids, or 99% of the ORF); made in house; host or cells: E. coli BL21(DE3)R3 Rosetta Oxford
Sequence (Q8I5R7 7-746): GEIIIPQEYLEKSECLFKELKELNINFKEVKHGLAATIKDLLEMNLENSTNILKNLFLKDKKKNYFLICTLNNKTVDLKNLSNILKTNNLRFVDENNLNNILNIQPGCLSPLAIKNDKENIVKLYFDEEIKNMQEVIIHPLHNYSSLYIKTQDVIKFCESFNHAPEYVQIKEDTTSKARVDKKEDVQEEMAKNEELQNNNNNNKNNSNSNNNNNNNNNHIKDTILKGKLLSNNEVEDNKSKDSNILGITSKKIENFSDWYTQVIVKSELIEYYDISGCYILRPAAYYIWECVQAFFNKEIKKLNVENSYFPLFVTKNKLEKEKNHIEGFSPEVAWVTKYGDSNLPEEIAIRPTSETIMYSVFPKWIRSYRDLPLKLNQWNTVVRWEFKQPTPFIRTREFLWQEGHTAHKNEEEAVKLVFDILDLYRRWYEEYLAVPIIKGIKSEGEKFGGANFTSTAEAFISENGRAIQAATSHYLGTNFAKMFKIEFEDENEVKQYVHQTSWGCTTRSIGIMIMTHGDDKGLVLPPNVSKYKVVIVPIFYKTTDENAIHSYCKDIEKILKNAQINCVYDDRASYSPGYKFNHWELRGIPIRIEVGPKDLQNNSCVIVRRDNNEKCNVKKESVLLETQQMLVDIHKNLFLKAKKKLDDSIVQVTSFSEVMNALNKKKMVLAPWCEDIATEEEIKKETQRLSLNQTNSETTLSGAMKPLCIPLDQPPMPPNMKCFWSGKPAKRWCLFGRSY
Test: aminoacylation assay ([3H]-L-proline incorporation into tRNA)
Format: biochemical
ASSAY METRIC: pIC50
Value format note: pIC50 is -log10 of concentration (mol/L); just state the number.

Record O=C(CC1NCCCC1O)Cn1cnc2cc(Br)c(Cl)cc2c1=O (stereo not shown) [halofuginone] . Reported pIC50: 7.96
